assay system: human DP2 receptor (Homo sapiens, UniProt Q9Y5Y4)
assay protocol: DP2/CRTH2 binding assay (radioligand binding using [3H]PGD2)
assay context: [3H]PGD2, membranes of HEK293 cells stably expressing recombinant human DP2; read-out: hDP2 binding
Procedure: The ability of a compound to bind to the human DP2 receptor is assessed via a radioligand binding assay using [^3H]PGD2. […] Scintillant is then added to the plates and the radioactivity retained on the filters is determined on a Packard TopCount (Perkin Elmer). Specific binding is determined as total radioactive binding minus non-specific binding in the presence of 10 μM PGD2. IC50s were determined using GraphPad prism analysis of drug titration curves.
// IC50 lookup, one value per entry

Provide measured IC50 value, entry: `C[C@H]1[C@@H](c2ccccc2)OC(=O)N1Cc1cc(C(F)(F)F)ccc1-c1cc(CC(=O)O)ccc1-c1ccccc1`
< 300 nM

Provide measured IC50 value, entry: `COc1ccc(CC(=O)O)cc1-c1ccc(F)cc1CN1C(=O)O[C@H](c2ccccc2)[C@@H]1C`
< 300 nM

Provide measured IC50 value, entry: O=C(O)CCn1c2c(c3ccccc31)C[C@H](NS(=O)(=O)c1ccc(F)cc1)CC2 [Ramatroban, reference compound]
300 to 1000 nM

Provide measured IC50 value, entry: `C[C@H]1[C@@H](c2ccccc2)OC(=O)N1Cc1cc(C(F)(F)F)ccc1-c1cc(CC(=O)O)ccc1OCC1CC1`
< 300 nM

Provide measured IC50 value, entry: `COc1ccc(CC(=O)O)cc1-c1ccc(C(F)(F)F)cc1CN1C(=O)O[C@H](c2ccccc2)[C@@H]1C`
< 300 nM

Provide measured IC50 value, entry: `COc1ccc(CC(=O)O)cc1-c1ccc(C(F)(F)F)cc1CN1C(=O)O[C@H](c2cc(C(F)(F)F)cc(C(F)(F)F)c2)[C@@H]1C`
< 300 nM

Provide measured IC50 value, entry: `C[C@H]1[C@@H](c2ccccc2)OC(=O)N1Cc1cc(C(F)(F)F)ccc1-c1cc(CC(=O)O)ccc1-c1cccnc1`
< 300 nM

Provide measured IC50 value, entry: `COc1ccc(CC(=O)O)cc1-c1ccc(C(F)(F)F)cc1CN1CCOC1=O`
< 300 nM

Provide measured IC50 value, entry: COc1ccc(CC(=O)O)cc1-c1ccc(C(F)(F)F)cc1CN1C(=O)N(CC(=O)O)C(C)(c2ccccc2)C1=O (centres unmarked)
> 1000 nM

Provide measured IC50 value, entry: `C[C@H]1[C@@H](c2ccccc2)OC(=O)N1Cc1cc(C(F)(F)F)ccc1-c1cc(CC(=O)O)ccc1-c1cnn(C)c1`
300 to 1000 nM

Provide measured IC50 value, entry: `CCOc1ccc(CC(=O)O)cc1-c1ccc(C(F)(F)F)cc1CN1C(=O)O[C@H](c2ccccc2)[C@@H]1C`
< 300 nM

Provide measured IC50 value, entry: `COc1ccc(-c2ccc(C(F)(F)F)cc2CN2C(=O)O[C@H](c3ccccc3)[C@@H]2C)cc1CC(=O)O`
< 300 nM

Provide measured IC50 value, entry: COc1ccc(CC(=O)O)cc1-c1ccc(C(F)(F)F)cc1CN1C(=O)NC(C)(c2ccccc2)C1=O (centres unmarked)
> 1000 nM

Provide measured IC50 value, entry: `C[C@H]1[C@@H](c2ccccc2)OC(=O)N1Cc1cc(C(F)(F)F)ccc1-c1cccc(CC(=O)O)c1`
300 to 1000 nM

----------
assay system: human DP2 receptor (Homo sapiens, UniProt Q9Y5Y4)
assay protocol: DP2/CRTH2 binding assay (radioligand binding using [3H]PGD2)
assay context: [3H]PGD2, membranes of HEK293 cells stably expressing recombinant human DP2; read-out: hDP2 binding
// IC50 lookup, one value per entry

| compound | IC50 |
| --- | --- |
| COc1ccc(-c2cc(CC(=O)O)ccc2OC)c(CN2C(=O)O[C@H](c3ccccc3)[C@@H]2C)c1 [Compound 1-5] | > 1000 nM |
| COc1ccc(C(C)C(=O)O)cc1-c1ccc(C(F)(F)F)cc1CN1C(=O)O[C@H](c2ccccc2)[C@@H]1C (stereo partly shown) [Compound 1-12] | < 300 nM |
| C[C@H]1[C@@H](c2ccccc2)OC(=O)N1Cc1cc(C(F)(F)F)ccc1-c1cc(CC(=O)O)ccc1OCc1ccccc1 [Compound 1-17] | < 300 nM |

Provide measured IC50 value, entry: C[C@H]1[C@@H](c2ccccc2)OC(=O)N1Cc1cc(C(F)(F)F)ccc1-c1cc(CC(=O)O)ccc1OCC(=O)O [Compound 1-16]
300 to 1000 nM

Provide measured IC50 value, entry: C[C@H]1[C@@H](c2ccccc2)OC(=O)N1Cc1cc(C(F)(F)F)ccc1-c1cc(CC(=O)O)ccc1F [Compound 1-9]
< 300 nM

Provide measured IC50 value, entry: C[C@H]1[C@@H](c2ccccc2)OC(=O)N1Cc1cc(C(F)(F)F)ccc1-c1cc(CC(=O)O)ccc1OCc1ccc(Cl)cc1 [Compound 1-18]
< 300 nM

Provide measured IC50 value, entry: COc1ccc(CC(=O)O)cc1-c1ccc(C(F)(F)F)cc1CN1C(=O)O[C@@H](c2ccccc2)[C@H]1C [Compound 1-11]
> 1000 nM

----------
assay system: UniProtKB Q9Y5Y4
Sequence (Q9Y5Y4 1-395): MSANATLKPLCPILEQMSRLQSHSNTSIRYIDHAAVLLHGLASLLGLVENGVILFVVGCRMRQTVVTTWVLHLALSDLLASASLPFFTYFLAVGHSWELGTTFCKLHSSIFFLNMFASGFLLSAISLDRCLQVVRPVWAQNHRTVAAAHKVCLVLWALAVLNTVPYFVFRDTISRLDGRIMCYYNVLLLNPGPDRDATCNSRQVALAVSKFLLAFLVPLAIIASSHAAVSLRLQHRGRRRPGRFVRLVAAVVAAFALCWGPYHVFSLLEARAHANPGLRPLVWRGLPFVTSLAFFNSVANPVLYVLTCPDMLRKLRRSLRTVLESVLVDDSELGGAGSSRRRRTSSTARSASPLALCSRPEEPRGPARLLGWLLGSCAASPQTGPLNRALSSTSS
assay protocol: DP2/CRTH2 binding assay (radioligand binding using [3H]PGD2)
assay context: [3H]PGD2, membranes of HEK293 cells stably expressing recombinant human DP2; read-out: hDP2 binding
pIC50: −log10 of the molar value.
// pIC50 lookup, one value per entry

Worked cases, answers included:
| compound smiles | pIC50 |
| --- | --- |
| COc1ccc(-c2ccc(C(F)(F)F)cc2CN2CCOC2=O)cc1CC(=O)O | > 6.52 |
| COc1ccc(CC(=O)O)cc1-c1ccccc1CN1C(=O)O[C@H](c2ccccc2)[C@@H]1C | 6.00 to 6.52 |
| COc1ccc(CC(=O)O)cc1-c1ccc(C(F)(F)F)cc1CN1CCN=C1C | < 6.00 |

Shift focus to the following entry.
Provide measured pIC50 value, entry: `C[C@H]1[C@@H](c2ccccc2)OC(=O)N1Cc1cc(C(F)(F)F)ccc1-c1ccc(F)c(CC(=O)O)c1`
6.00 to 6.52

Origin of values: patent US8497381B2
